Data credit: patent US8846947B2

- assay.target: SIRT1 (Homo sapiens, UniProt Q96EB6)
- assay: Mass spectrometry based SIRT1 deacetylase activation assay (acetylated p53-derived peptide substrate)
- Assay type: biochemical
measurement.kind: EC1.5

Sample O=C(Nc1cccc2[nH]c(-c3ccccc3C(F)(F)F)nc12)c1ccccn1 ; EC1.5 observed: B (EC1.5 1-25 uM)

Sample Cc1cc(C)nc(NC(=O)c2cccc3[nH]c(-c4cc(F)ccc4C(F)(F)F)nc23)c1 ; EC1.5 observed: A (EC1.5<1.0 uM)

Sample O=C(Nc1ccccn1)c1cccc2[nH]c(-c3cccc(N4CCOCC4)c3)nc12 ; EC1.5 observed: A (EC1.5<1.0 uM)

Sample O=C(Nc1nccs1)c1cccc2[nH]c(-c3c(F)cccc3Cl)nc12 ; EC1.5 observed: B (EC1.5 1-25 uM)

Sample O=C(Nc1nccs1)c1cccc2[nH]c(-c3ccc(Cl)cc3C(F)(F)F)nc12 ; EC1.5 observed: A (EC1.5<1.0 uM)

Sample O=C(Nc1cccc2[nH]c(-c3cc(F)ccc3C(F)(F)F)nc12)c1ccccn1 ; EC1.5 observed: B (EC1.5 1-25 uM)

Below: the item to evaluate.
Sample O=C(Nc1nccs1)c1cccc2[nH]c(-c3cccc(OCCN4CCOCC4)c3)nc12 ; EC1.5 observed: B (EC1.5 1-25 uM)

----------
- assay.target: SIRT1 (Homo sapiens, UniProt Q96EB6)
- Sequence (Q96EB6 1-747): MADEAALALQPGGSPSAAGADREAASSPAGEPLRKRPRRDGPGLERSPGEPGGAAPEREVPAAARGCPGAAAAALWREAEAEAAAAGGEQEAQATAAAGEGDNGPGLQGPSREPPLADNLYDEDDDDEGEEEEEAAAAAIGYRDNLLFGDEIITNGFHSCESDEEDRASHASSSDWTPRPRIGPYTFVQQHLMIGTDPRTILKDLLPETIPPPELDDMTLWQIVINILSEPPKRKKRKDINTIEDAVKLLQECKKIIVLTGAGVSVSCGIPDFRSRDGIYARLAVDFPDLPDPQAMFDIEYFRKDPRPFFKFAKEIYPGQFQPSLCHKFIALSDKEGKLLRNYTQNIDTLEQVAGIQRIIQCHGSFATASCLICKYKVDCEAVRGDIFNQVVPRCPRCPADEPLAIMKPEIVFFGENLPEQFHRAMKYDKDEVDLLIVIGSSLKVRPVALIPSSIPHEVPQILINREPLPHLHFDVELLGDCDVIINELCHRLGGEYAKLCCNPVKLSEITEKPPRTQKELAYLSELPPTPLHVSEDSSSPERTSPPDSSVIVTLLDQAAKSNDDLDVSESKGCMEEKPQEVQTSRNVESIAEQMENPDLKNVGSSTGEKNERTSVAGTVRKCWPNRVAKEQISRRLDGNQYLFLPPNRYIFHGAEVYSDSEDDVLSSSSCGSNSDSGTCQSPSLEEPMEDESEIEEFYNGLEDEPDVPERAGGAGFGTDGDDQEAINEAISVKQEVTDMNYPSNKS
- assay: Mass spectrometry based SIRT1 deacetylase activation assay (acetylated p53-derived peptide substrate)
- Type: biochemical
- recorded.conditions: 0.5 μM peptide substrate, 120 μM βNAD+, 10 nM SIRT1, 25 min at 25° C., read-out: EC1.5
Quick list: EC1.5 per entry.

Recorded results for 5 molecules are shown here.
Sample O=C(NCc1ccccn1)c1cccc2[nH]c(-c3ccc(Cl)cc3C(F)(F)F)nc12 [Compound 433] ; EC1.5 observed: 1000 to 25000 nM

Sample O=C(Nc1cccc(OCC(O)CO)c1)c1cccc2[nH]c(-c3ccc(Cl)cc3C(F)(F)F)nc12 (stereo not shown) [Compound 479] ; EC1.5 observed: < 1000 nM

Sample O=C(Nc1nccs1)c1cccc2[nH]c(-c3ccccc3OCCN3CCC(F)(F)CC3)nc12 [Compound 579] ; EC1.5 observed: > 25000 nM

Sample CC(C)(C)c1cccc(-c2nc3c(C(=O)Nc4ccccn4)cccc3[nH]2)c1OCCN1CCOCC1 [Compound 588] ; EC1.5 observed: 1000 to 25000 nM

Sample O=C1COc2ccc(-c3nc4c(C(=O)Nc5cccnc5)cccc4[nH]3)cc2N1 [Compound 533] ; EC1.5 observed: > 25000 nM

Below: the item to evaluate.
Sample O=C(Nc1ccccn1)c1cccc2[nH]c(-c3ccc(OC4CCNCC4)cc3)nc12 [Compound 535] ; EC1.5 observed: < 1000 nM
